test: Evaluation of total body clearance (CLtot), intravenous administration; format: in vivo, Sprague-Dawley (SD); conditions: rat (SD), intravenous administration 0.5-10 mg/kg; CLtot = dose/AUC
observed property: rat_CLt (mL/min/kg)

1) CC1(C)CCc2sc(-c3ccc(OCCN(CC(O)C(Cc4ccccc4)NC(=O)OC4COC5(C)OCCC45)S(=O)(=O)c4ccc5ncsc5c4)cc3)c(C(=O)O)c2C1 (centres unmarked) [Compound I-165] :: 1.08
2) COc1ccc(S(=O)(=O)N(CC(C)C)CC(O)C(Cc2ccc(NCc3nc(N4CCCC4)sc3-c3sc4c(c3C(=O)O)CC(C)(C)CC4)cc2)NC(=O)OC2COC3(C)OCCC23)cc1 (centres unmarked) [Compound I-607] :: 0.797
3) COc1ccc(S(=O)(=O)N(CC(C)C)CC(O)C(Cc2ccc(OCc3ccccc3-c3sc(N(C4CCCCC4)C4CCCCC4)nc3C(=O)O)cc2)NC(=O)OC2COC3(C)OCCC23)cc1 (centres unmarked) [Compound I-74] :: 3.88
4) COc1ccc(S(=O)(=O)N(CC(C)C)C[C@@H](O)[C@H](Cc2ccc(NC3CN(c4ccccc4-c4sc5c(c4C(=O)O)CC(C)(C)CC5)C3)cc2)NC(=O)O[C@H]2CO[C@@]3(C)OCC[C@@H]23)cc1 [Compound I-228] :: 0.144
5) CC1(C)CCc2sc(NC(=O)c3ccccc3CNc3ccc(CC(NC(=O)OC4COC5OCCC45)C(O)CN(CC4CCC4)S(=O)(=O)c4ccc5ncsc5c4)cc3)c(C(=O)O)c2C1 (centres unmarked) [Compound I-862] :: 0.14
6) COc1ccc(S(=O)(=O)N(CC(C)C)C[C@@H](O)[C@H](Cc2ccc(OCc3ccccc3-c3sc4c(c3C(=O)O)CC(C)(C)CC4)cc2)NC(=O)[C@H](CC(N)=O)NC(=O)c2ccc3ccccc3n2)cc1 [Compound I-30] :: 1.52
7) COc1ccc(S(=O)(=O)N(CC(C)C)CC(O)C(Cc2ccc(NCc3cc4c(cc3-c3sc5c(c3C(=O)O)CC(C)(C)CC5)OCCO4)cc2)NC(=O)OC2COC3(C)OCCC23)cc1 (centres unmarked) [Compound I-651] :: 0.536
8) COc1ccc(S(=O)(=O)N(CC(C)C)CC(O)C(Cc2ccc(NCc3cc(OC)ccc3-c3sc4c(c3C(=O)O)CC(C)(C)CC4)cc2)NC(=O)OC2COC3(C)OCCC23)cc1 (centres unmarked) [Compound I-566] :: 0.727
9) COc1ccc(S(=O)(=O)N(CC(C)C)CC(O)C(Cc2ccc(NCc3ccc(OC)cc3-c3sc4c(c3C(=O)O)CC(C)(C)CC4)cc2)NC(=O)OC2COC3(C)OCCC23)cc1 (centres unmarked) [Compound I-274] :: 0.659
10) COc1ccc(S(=O)(=O)N(CC(C)C)CC(O)C(Cc2ccc(NCc3nc(N4CCCC4)sc3-c3ccc(-c4sc5c(c4C(=O)O)CC(C)(C)CC5)cc3)cc2)NC(=O)OC2COC3(C)OCCC23)cc1 (centres unmarked) [Compound I-714] :: 0.0783
11) COc1ccc(S(=O)(=O)N(CC(C)C)CC(O)C(Cc2ccc(OCc3ncc(F)cc3-c3sc4c(c3C(=O)O)CC(C)(C)CC4)cc2)NC(=O)OC2COC3(C)OCCC23)cc1 (centres unmarked) [Compound I-182] :: 3.84

###

Item-by-item account of IC50
target: UniProt:P04585; experiment: HIV-protease inhibitory activity assay (FRET peptide substrate); settings: Test Example 1
observed property: IC50 (nM)

1. CC(C)CN(CC(O)C(Cc1ccc(OCc2cc(C(=O)O)ccc2-c2ccc(F)cc2F)cc1)NC(=O)OC1COC2(C)OCCC12)S(=O)(=O)c1ccc2ncsc2c1 (stereo not drawn) :: 1.88
2. COc1ccc(S(=O)(=O)N(CC(C)C)CC(O)C(Cc2ccc(OCc3ccccc3-c3sc(Cl)c(CC(C)C)c3C(=O)O)cc2)NC(=O)OC2COC3OCCC23)cc1 (stereo not drawn) :: 1.03
3. COc1ccc(S(=O)(=O)N(CC(C)C)CC(O)C(Cc2ccc(OCC3CCN(c4ccc(C#N)cc4-c4sc5c(c4C(=O)O)CC(C)(C)CC5)CC3)cc2)NC(=O)OC2COC3(C)OCCC23)cc1 (stereo not drawn) :: 31.7

###

Each entry below carries its recorded IC50.
Target: HIV-1 PR (Human immunodeficiency virus type 1 group M subtype B)
Assay: HIV-protease inhibitory activity assay (FRET peptide substrate)
Conditions: Test Example 1
Method: Test Example 1: HIV-Protease Inhibitory Activity Assay The HIV-1 PR assay was performed by using a FRET (Fluorescence Resonance Energy Transfer) peptide substrate (AnaSpec, Inc., Fremont, Calif.). Initially in the intact FRET peptide, the fluorescence of HiLyte Fluor 488 is quenched by QXL 520. Upon substrate cleavage by PR, the fluorescence is recovered and can be monitored. […] Background fluorescence intensity was measured and let it stand for another 15 minutes at room temperature. […]
observed property: IC50 (nM)

1) COc1ccc(S(=O)(=O)N(CC(C)C)C[C@@H](O)[C@H](Cc2ccc(OCc3ccccc3-c3sc4c(c3C(=O)O)CC(C)(C)CC4)cc2)NC(=O)O[C@H]2CO[C@@]3(C)OCC[C@@H]23)cc1 :: 1.29
2) COc1ccc(S(=O)(=O)N(CC(C)C)CC(O)C(Cc2ccc(NCc3cc(C)ccc3NC(=O)c3sc4c(c3C(=O)O)CC(C)(C)CC4)cc2)NC(=O)OC2COC3(C)OCCC23)cc1 (centres unmarked) :: 2.16
3) COc1ccc(S(=O)(=O)N(CC(C)C)CC(O)C(Cc2ccc(NCCOc3ccccc3-c3sc4c(c3C(=O)O)CC(C)(C)CC4)cc2)NC(=O)OC2COC3(C)OCCC23)cc1 (centres unmarked) :: 2.48
4) COc1ccc(S(=O)(=O)N(CC(C)C)CC(O)C(Cc2ccc(N(C)CC3=C(c4sc5c(c4C(=O)O)CC(C)(C)CC5)C4CC(C3)C4(C)C)cc2)NC(=O)OC2COC3(C)OCCC23)cc1 (centres unmarked) :: 5.03
5) CC(C)CN(CC(O)C(Cc1ccc(OCc2ccccc2-c2sc3c(c2C(=O)O)CC(C)(C)CC3(C)C)cc1)NC(=O)OC1COC2(C)OCCC12)S(=O)(=O)c1ccc2ncsc2c1 (centres unmarked) :: 1.23

###

test: Evaluation of total body clearance (CLtot), intravenous administration; assay type: in vivo, Sprague-Dawley (SD); conditions: rat (SD), intravenous administration 0.5-10 mg/kg; CLtot = dose/AUC
observed property: rat_CLt

1. COc1ccc(S(=O)(=O)N(CC(C)C)CC(O)C(Cc2ccc(N(C)C3Cc4cccc(-c5sc6c(c5C(=O)O)CC(C)(C)CC6)c4C3)cc2)NC(=O)OC2COC3(C)OCCC23)cc1 (stereo not shown) :: 0.196 L/h/kg
2. COc1ccc(S(=O)(=O)N(CC(C)C)CC(O)C(Cc2ccc(NCc3cnc4ccccc4c3-c3sc4c(c3C(=O)O)CC(C)(C)CC4)cc2)NC(=O)OC2COC3(C)OCCC23)cc1 (stereo not shown) :: 0.0152 L/h/kg
3. COc1ccc(S(=O)(=O)N(CC(C)C)CC(O)C(Cc2ccc(N3CCC(Oc4ccccc4-c4sc5c(c4C(=O)O)CC(C)(C)CC5)CC3)cc2)NC(=O)OC2COC3(C)OCCC23)cc1 (stereo not shown) :: 0.19 L/h/kg
4. COc1ccc(S(=O)(=O)N(CC(C)C)CC(O)C(Cc2ccc(NC3Cc4cccc(-c5sc6c(c5C(=O)O)CC(C)(C)CC6)c4C3)cc2)NC(=O)OC2COC3(C)OCCC23)cc1 (stereo not shown) [Compound I-242] :: 0.0245 L/h/kg
5. COc1ccc(S(=O)(=O)N(CC(C)C)CC(O)C(Cc2ccc(NCc3ccc(-c4sc5c(c4C(=O)O)CC(C)(C)CC5)cc3)cc2)NC(=O)OC2COC3(C)OCCC23)cc1 (stereo not shown) :: 0.279 L/h/kg
6. COc1ccc(S(=O)(=O)N(CC(C)C)CC(O)C(Cc2ccc(NCc3c(-c4sc5c(c4C(=O)O)CC(C)(C)CC5)ccc4ccccc34)cc2)NC(=O)OC2COC3(C)OCCC23)cc1 (stereo not shown) :: 0.00326 L/h/kg
7. COc1ccc(S(=O)(=O)N(CC(C)C)CC(O)C(Cc2ccc(NCc3ccc(C)c(-c4sc5c(c4C(=O)O)CC(C)(C)CC5)c3)cc2)NC(=O)OC2COC3(C)OCCC23)cc1 (stereo not shown) :: 0.0331 L/h/kg
8. COc1ccc(S(=O)(=O)N(CC(C)C)CC(O)C(Cc2ccc(OCc3ccccc3-c3ccc4c(c3)C(=O)C(c3ccc(F)cc3)C4=O)cc2)NC(=O)OC2COC3OCCC23)cc1 (stereo not shown) :: 0.143 L/h/kg
9. CC(C)CN(CC(O)C(Cc1ccccc1)NC(=O)OC1COC2(C)OCCC12)S(=O)(=O)c1ccc2nc(NCc3ccc(-c4sc5c(c4C(=O)O)CC(C)(C)CC5)cc3)sc2c1 (stereo not shown) :: 0.272 L/h/kg
10. COc1ccc(S(=O)(=O)N(CC(C)C)CC(O)C(Cc2ccc(N(C)Cc3cc4c(cc3-c3sc5c(c3C(=O)O)CC(C)(C)CC5)OCCO4)cc2)NC(=O)OC2COC3(C)OCCC23)cc1 (stereo not shown) :: 0.0434 L/h/kg

Just for reference, patent US20170253607A1 is where these values come from.
